# tested.target: ActRIIA and ActRIIB (on TGFB/SMAD SBE Reporter HEK293 cells) (human)
# Sequence (chain, as listed by the source, chain 1 of 2): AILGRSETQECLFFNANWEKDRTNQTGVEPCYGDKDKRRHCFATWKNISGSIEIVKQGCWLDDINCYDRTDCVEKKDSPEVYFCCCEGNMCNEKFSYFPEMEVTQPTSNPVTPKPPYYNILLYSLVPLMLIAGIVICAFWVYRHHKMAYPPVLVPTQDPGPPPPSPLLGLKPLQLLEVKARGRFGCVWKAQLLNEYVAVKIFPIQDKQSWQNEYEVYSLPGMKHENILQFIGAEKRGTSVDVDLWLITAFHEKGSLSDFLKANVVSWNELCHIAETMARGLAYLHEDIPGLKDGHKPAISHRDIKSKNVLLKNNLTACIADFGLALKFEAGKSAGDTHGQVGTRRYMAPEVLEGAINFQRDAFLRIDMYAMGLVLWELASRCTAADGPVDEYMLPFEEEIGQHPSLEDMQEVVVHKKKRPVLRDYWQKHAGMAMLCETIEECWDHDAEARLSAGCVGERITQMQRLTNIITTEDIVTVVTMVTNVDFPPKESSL
# Sequence (chain, as listed by the source, chain 2 of 2): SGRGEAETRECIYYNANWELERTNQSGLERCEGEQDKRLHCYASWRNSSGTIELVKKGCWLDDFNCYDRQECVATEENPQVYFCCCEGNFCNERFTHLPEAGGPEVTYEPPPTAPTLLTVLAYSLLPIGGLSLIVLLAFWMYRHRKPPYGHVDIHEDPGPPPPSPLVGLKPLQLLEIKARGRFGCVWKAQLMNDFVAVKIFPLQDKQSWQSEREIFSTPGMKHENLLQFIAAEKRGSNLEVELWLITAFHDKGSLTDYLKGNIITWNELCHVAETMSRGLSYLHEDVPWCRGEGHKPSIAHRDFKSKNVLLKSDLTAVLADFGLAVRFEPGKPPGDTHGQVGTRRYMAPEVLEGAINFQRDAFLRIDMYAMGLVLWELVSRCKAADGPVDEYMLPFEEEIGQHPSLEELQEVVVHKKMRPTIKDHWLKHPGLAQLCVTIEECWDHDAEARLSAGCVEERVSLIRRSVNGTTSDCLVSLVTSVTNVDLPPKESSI
# experimental.details: cell-based or functional assay
property.label: IC50 [nM] (assay not given) (nM)
Dear colleague, please return just the value in nM, with no unit written.

Would you kindly share the measured IC50 [nM] (assay not given) for Antibody Hefaknöpfla (antibody, V domains shown, full-length IgG) VH: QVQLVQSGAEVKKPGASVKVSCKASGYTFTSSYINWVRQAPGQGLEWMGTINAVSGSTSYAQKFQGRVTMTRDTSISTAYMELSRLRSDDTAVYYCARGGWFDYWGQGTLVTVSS VL: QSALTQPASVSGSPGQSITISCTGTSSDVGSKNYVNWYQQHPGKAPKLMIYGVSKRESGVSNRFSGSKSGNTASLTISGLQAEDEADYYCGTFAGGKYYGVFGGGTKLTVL ? 0.011

Suppose we examine the binder Bimagrumab (antibody, V domains shown) VH: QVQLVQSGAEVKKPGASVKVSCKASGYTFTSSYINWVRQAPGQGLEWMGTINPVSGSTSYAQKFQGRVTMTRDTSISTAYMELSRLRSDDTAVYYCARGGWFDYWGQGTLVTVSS VL: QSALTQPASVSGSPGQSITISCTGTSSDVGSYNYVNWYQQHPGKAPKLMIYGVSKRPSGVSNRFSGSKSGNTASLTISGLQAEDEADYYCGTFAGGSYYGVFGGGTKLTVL ; what IC50 [nM] (assay not given) value has been reported? 0.294

I am curious: what IC50 [nM] (assay not given) value has been reported for Antibody Riaba (antibody, V domains shown, full-length IgG) VH: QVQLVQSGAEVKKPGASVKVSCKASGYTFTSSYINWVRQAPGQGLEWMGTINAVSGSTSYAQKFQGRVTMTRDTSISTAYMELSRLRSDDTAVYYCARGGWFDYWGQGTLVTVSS VL: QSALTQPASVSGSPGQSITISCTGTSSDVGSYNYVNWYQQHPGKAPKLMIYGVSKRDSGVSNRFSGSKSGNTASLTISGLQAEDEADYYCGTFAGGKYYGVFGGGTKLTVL ? 0.0371

Bench note: what IC50 [nM] (assay not given) did Antibody Bäratatza (antibody, V domains shown, full-length IgG) VH: QVQLVQSGAEVKKPGASVKVSCKASGYTFTSSYINWVRQAPGQGLEWMGTINAVSGSTSYAQKFQGRVTMTRDTSISTAYMELSRLRSDDTAVYYCARSGWFDYWGQGTLVTVSS VL: QSALTQPASVSGSPGQSITISCTGTSSDVGSYNYVNWYQQHPGKAPKLMIYGVSKQQSGVSNRFSGSKSGNTASLTISGLQAEDEADYYCGTFAGGSYYGVFGGGTKLTVL show? 0.105
